Test system: IGROV1 complex spheroids (HUVEC, MSC), viability % test/control
Test: Anticancer human tumor IGROV1 cell line growth inhibition [GQUAD]; active = viability on the fitted dose curve at most 10% of control; inactive = the rest;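 also: spheroids exposed to compounds for 7 days before readout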
Conditions: second compound 3.16 µM; first compound 3.16 µM
Excerpt: DNA G-quadruplex Stabilizer Agents in Combinations in Complex Spheroids A high-throughput screen of multi-cell type tumor spheroids was designed to identify active combinations of DNA G-quadruplex stabilizer agents and targeted small molecules. […] Compounds. […] If the clinical Cmax for an agent had not been determined, the highest concentration tested was 10 microM. […]
Classes used: T (active), F (inactive)

# compound, class_assignment
measured = [
    ("Cc1cccc(N(C)C(=O)C2C(O)CCN2c2nc(C)cc(C(F)(F)F)c2C#N)c1 (stereo not given) + Cc1cnc(CNC(=O)c2c(=O)c3ccc(N4CCCN(C)CC4)nc3n3c2sc2ccccc23)cn1", "F"),
    ("COc1ncnc(C2CC2)c1-c1ncc2cnn(Cc3ccc(-c4nc(C(F)(F)F)cn4C(C)C)cc3)c2n1 + Cc1[nH]c2ccc(F)cc2c1-c1nc2c3cccnc3c3ncccc3c2[nH]1", "T"),
    ("CC1COCCN1c1cc(-c2ccnn2C)c2ccnc(-c3ccn[nH]3)c2n1 (stereo not given) + CN(C)c1ccc(Nc2c3ccc(NC(=O)CCN4CCCC4)cc3nc3cc(NC(=O)CCN4CCCC4)ccc23)cc1", "T"),
    ("CC1COCCN1c1cc(-c2ccnn2C)c2ccnc(-c3ccn[nH]3)c2n1 (stereo not given) + Cc1cnc(CNC(=O)c2c(=O)c3ccc(N4CCCN(C)CC4)nc3n3c2sc2ccccc23)cn1", "T"),
    ("CC1COCCN1c1cc(C2(O)CC3CCC(C2)O3)c2cnn(-c3ccn[nH]3)c2n1 (stereo not given) + Cc1cnc(CNC(=O)c2c(=O)c3ccc(N4CCCN(C)CC4)nc3n3c2sc2ccccc23)cn1", "T"),
]

---

tested on: IGROV1 complex spheroids (HUVEC, MSC), viability % test/control; experiment: Anticancer human tumor IGROV1 cell line growth inhibition [GQUAD]; details: second compound 0.316 µM; first compound 0.316 µM; active means viability on the fitted dose curve at most 10% of control; inactive means the rest;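 also: spheroids exposed to compounds for 7 days before readout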
Classes used: Yes for active, No for inactive

# compound, experimental_system, class_assignment
data = [
    ("CC(C)n1c(=O)n(C)c2cnc3cc(F)c(-c4ccc(OCCCN5CCCCC5)nc4)cc3c21 + Cc1[nH]c2ccc(F)cc2c1-c1nc2c3cccnc3c3ncccc3c2[nH]1", "IGROV1 complex spheroids (HUVEC, MSC), viability % test/control", "No"),
    ("Nc1ccn(C2OC(CO)C(O)C2(F)F)c(=O)n1 (stereo unspecified) + CN(C)c1ccc(Nc2c3ccc(NC(=O)CCN4CCCC4)cc3nc3cc(NC(=O)CCN4CCCC4)ccc23)cc1", "IGROV1 complex spheroids (HUVEC, MSC), viability % test/control", "Yes"),
    ("O=C(c1cc(Cc2n[nH]c(=O)c3ccccc23)ccc1F)N1CCN(C(=O)C2CC2)CC1 + Cc1[nH]c2ccc(F)cc2c1-c1nc2c3cccnc3c3ncccc3c2[nH]1", "IGROV1 complex spheroids (HUVEC, MSC), viability % test/control", "No"),
    ("CC1COCCN1c1cc(C2(S(C)(=N)=O)CC2)nc(-c2ccnc3[nH]ccc23)n1 (stereo unspecified) + Cc1[nH]c2ccc(F)cc2c1-c1nc2c3cccnc3c3ncccc3c2[nH]1", "IGROV1 complex spheroids (HUVEC, MSC), viability % test/control", "No"),
    ("COc1cccc2c1C(=O)c1c(O)c3c(c(O)c1C2=O)CC(O)(C(=O)CO)CC3OC1CC(N)C(O)C(C)O1 (stereo unspecified) + Cc1[nH]c2ccc(F)cc2c1-c1nc2c3cccnc3c3ncccc3c2[nH]1", "IGROV1 complex spheroids (HUVEC, MSC), viability % test/control", "Yes"),
    ("Cc1[nH]c2ccccc2c1CCNCc1ccc(/C=C/C(=O)NO)cc1 + Cc1[nH]c2ccc(F)cc2c1-c1nc2c3cccnc3c3ncccc3c2[nH]1", "IGROV1 complex spheroids (HUVEC, MSC), viability % test/control", "Yes"),
]
